All values here come from the METLIN SMRT retention time set (Domingo-Almenara et al. 2019).

# ASSAY_DETAILS: gradient 5% acetonitrile 3 min, to 50% in 2 min, to 85% in 15 min, held 3 min, 100 µL/min
# MEASUREMENT_SETUP: column: Zorbax Extend-C18 2.1 x 50 mm; eluents: water / acetonitrile, 0.1% formic acid
MEASUREMENT_KIND: RP-LC retention time (s)

Use the examples below as a reference point.
Query string: Request the reported RP-LC retention time associated with COc1cc2c(cc1OC)CN(C(=O)CCc1sc(C)nc1-c1cccs1)CC2
Result string: 799

Query string: Request the reported RP-LC retention time associated with COc1ccc(C(O)Cn2ccn3nc(-c4ccc(C(C)C)cc4)cc3c2=O)cc1 (centres undefined)
Result string: 1060

Query string: Request the reported RP-LC retention time associated with CCn1cnc(S(=O)(=O)N2CCCC(C(=O)Nc3ccccc3F)C2)c1 (centres undefined)
Result string: 735

Query string: Request the reported RP-LC retention time associated with COc1ccc(S(=O)(=O)N2CCC(C(=O)Nc3nnc(C4CCCO4)o3)CC2)cc1 (centres undefined)
Result string: 658

Query string: Request the reported RP-LC retention time associated with Cc1nnc(NC(=O)CSc2nnc(-c3cccs3)o2)s1
Result string: 654

Query string: Request the reported RP-LC retention time associated with Cc1ccc(S(=O)(=O)N2CCc3nc(-c4ccc(F)cc4)ncc3C2)cc1Cl
Result string: 1230

(1) O=C(OCCN1CCN(C2=NS(=O)(=O)c3ccccc32)CC1)c1ccccc1
(2) COc1ccc(Br)cc1S(=O)(=O)NC(=O)/C=C/c1ccccc1Cc1ccc2ccccc2c1
Query string: Smaller RP-LC retention time value? Options are 1 and 2 Please respond with the label that marks your chosen entry.
Result string: 1
(1: 656 s, 2: 1280 s)

----------
# ASSAY_DETAILS: gradient 5% acetonitrile 3 min, to 50% in 2 min, to 85% in 15 min, held 3 min, 100 µL/min
# MEASUREMENT_SETUP: column: Zorbax Extend-C18 2.1 x 50 mm; eluents: water / acetonitrile, 0.1% formic acid
MEASUREMENT_KIND: RP-LC retention time (s)

Query string: Request the reported RP-LC retention time associated with O=c1ccc(-c2ccc3c(c2)OCO3)nn1CCc1nc(-c2ccccc2Cl)no1
Result string: 966

Query string: Request the reported RP-LC retention time associated with CCS(=O)(=O)Nc1cc(-c2nnc(C(C)C)o2)sc1C
Result string: 863

Query string: Request the reported RP-LC retention time associated with Cc1cc(N2CCOCC2)n2nc(CN3CCN(c4ccccc4C)CC3)nc2n1
Result string: 636

Query string: Request the reported RP-LC retention time associated with c1csc(CN2CCC(Oc3ccccc3-c3nc(-c4cnccn4)no3)C2)c1 (centres undefined)
Result string: 662

Query string: Request the reported RP-LC retention time associated with Nc1ccc(C(=O)c2cccs2)cn1
Result string: 634

Query string: Request the reported RP-LC retention time associated with O=C(NCCN1CCOCC1)c1cccc(Nc2c(-c3ccccc3)nc3cnccn23)c1
Result string: 589

Query string: Request the reported RP-LC retention time associated with COc1cc(OC)c(NC(=O)Cn2c(=O)n(-c3ccccc3)c(=O)c3c2cc(C)n3C)cc1Cl
Result string: 861

Query string: Request the reported RP-LC retention time associated with Cc1nc(OCC(=O)Nc2ccc(Br)cc2F)c2ccccc2n1
Result string: 820

Query string: Request the reported RP-LC retention time associated with CCc1ccc(CNC(=O)c2cn(-c3ccc(-c4nc(C)no4)cn3)cn2)cc1
Result string: 805

Query string: Request the reported RP-LC retention time associated with COc1ccc2c(c1)C=C(C(=O)N1CCN(Cc3ccc(OC)c(OC)c3OC)CC1)CO2
Result string: 682

Query string: Request the reported RP-LC retention time associated with Cc1ccc(NC(=O)CSC2=C(C#N)C(c3cccs3)CC(=O)N2)cc1Cl (centres undefined)
Result string: 915

Query string: Request the reported RP-LC retention time associated with CCOc1ccc(-n2c(CN3CCN(C(=O)NC(C)CC)CC3)nc3cccnc32)cc1 (centres undefined)
Result string: 650

Query string: Request the reported RP-LC retention time associated with Cc1ccccc1-n1c(=O)c2sccc2n(Cc2nc(-c3ccc(Cl)cc3)no2)c1=O
Result string: 1090

Query string: Request the reported RP-LC retention time associated with Cc1ccc(-c2nccn3cc(C(=O)N4CCN(C(C)C)CC4)nc23)cc1
Result string: 620

Query string: Request the reported RP-LC retention time associated with COC(=O)C1=CN(c2ccc(Cl)cc2)c2cc(F)ccc2S1(=O)=O
Result string: 919

Query string: Request the reported RP-LC retention time associated with CCC(C)C(NC(=O)c1cccc(Cl)c1)C(=O)Nc1nc2ccccc2[nH]1 (centres undefined)
Result string: 750

Query string: Request the reported RP-LC retention time associated with Cc1ccc(S(=O)(=O)Cc2noc(CCNS(=O)(=O)c3ccc(C)cc3)n2)cc1
Result string: 875

Query string: Request the reported RP-LC retention time associated with CC1CN(C(=O)COc2ccc3ccccc3c2)c2ccccc2NC1=O (centres undefined)
Result string: 825

Query string: Request the reported RP-LC retention time associated with O=C(c1ccccc1F)N1CCCn2cc(-c3ccccc3F)nc21
Result string: 792
